method notes: IANBD-channel fluorescence artefacts in buffer – biochemical, artefact control for cardiac RTF calcium sensitizer project, confirmation (AID 504382)
test settings: IANBD fluorescence interference counterscreen, EC20 Ca2+, at 7.2 µM, hits give high values, scaled: EC20 calcium 0, EC100 calcium 100
Hit rate of the full screen: of about 2,500 compounds, about 460 (18%) were called active. Not all results are given here.
attribute measured: fluorescence artifact activation (%)
Express the result in % but write the number alone.

compound | quantity unit | fluorescence artifact activation
COC(C(=O)Nc1c(F)cccc1F)c1ccccc1 (stereo unspecified) | % | 0.18
N#C/C(=C\c1ccc(N2CCOCC2)o1)C(=O)N1CCOCC1 | % | 0.05
COc1ncnc2c1N=C1CC(C)(C)CC(N)=C1S2 | % | 17.8

Problem: # lookup: fluorescence artifact activation of `O=c1[nH]c2c(s1)C=Nc1ccccc1N2`
Solution: 0.01

Problem: Report fluorescence artifact activation for `CC(=O)c1ccc2c(c1)c(C#N)c1ccccc1[n+]2[O-]` please.
Solution: 57.1

Problem: Look at this compound and give its reported fluorescence artifact activation. `Cn1ncc(Cl)c1C(=O)Nc1cccc(Cl)c1`
Solution: 0.09

Problem: Name the reported fluorescence artifact activation value associated with the compound `N#C/C(=C/c1ccc(N2CCOCC2)o1)c1ccc(Cl)cc1`
Solution: 0

Problem: // returns reported fluorescence artifact activation for input `CCOc1c2ccc(C(=O)NCCc3cccs3)cc2nn1CC`
Solution: 0.58

Problem: So what's the measured fluorescence artifact activation for this one? `O=C(NC1CCCCC1)c1ccccc1NC(=S)NC(=O)C1CCC1`
Solution: 8.42

Problem: # lookup: fluorescence artifact activation of `COc1ccccc1-c1sc2ccccc2c1-c1ccc(Br)nc1`
Solution: 0.93

* * *

method notes: IANBD-channel fluorescence artefacts in buffer – biochemical, artefact control for cardiac RTF calcium sensitizer project, confirmation (AID 504382)
test settings: IANBD fluorescence interference counterscreen, EC20 Ca2+, at 7.2 µM, scaled: EC20 calcium 0, EC100 calcium 100
The campaign covered roughly 2,500 compounds. About 460 (18%) were called active.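 Rule for the calls: active = mean activation above a cutoff of low control average plus 3 SD from the earlier screen (cut at about 12% in these data); inactive = the rest.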 These entries were drawn from the full list.
Outcome (select one): yes = active, no = inactive

Problem: How did this test come out for Cn1nc([N+](=O)[O-])c(C(C#N)c2ccccn2)c(Cl)c1=O (configuration not stated) ?
Solution: no

Problem: Could you please tell me the result logged for `Cc1ccnc(NC(=O)c2ccc(Br)s2)c1` in this assay?
Solution: no

Problem: Answer briefly: the call reported for `CC1CCN(S(=O)(=O)c2ccc(N=NC3=C(O)CC(C)(C)CC3=O)cc2)CC1` in this assay.
Solution: no

Problem: # fetch the recorded call for CCOc1ccc(C(=O)NCC(=O)N2CCC3CCCCC3C2)cc1OCC (configuration not stated) here
Solution: yes

Problem: Kindly provide the recorded test outcome for the following molecule: `O=C(c1ccccc1)c1ccccc1C(=O)c1ccccc1`
Solution: no

Problem: Lab log entry: `O=C1c2cccc3cccc(c23)C(=O)N1CC1CCN(S(=O)(=O)c2ccc(F)cc2)CC1` — outcome as called in the assay?
Solution: yes

Problem: How did this test come out for `O=C(c1ccccc1)c1ccncc1` ?
Solution: no

Problem: Which outcome did this test record for the molecule `O=[n+]1c2c(n([O-])c3cc(F)c(N4CCCC4)cc31)CCCC2` ?
Solution: yes

Problem: Tell me the recorded outcome of this test for `CCN(CC)c1ccc2cc(-c3nnc(-c4ccncc4)o3)c(=O)oc2c1` .
Solution: no

Problem: Lab log entry: `O=C(c1ccccc1)c1ccc(O)cc1O` — outcome as called in the assay?
Solution: yes

Problem: Called result for `O=[n+]1c2c(n([O-])c3ccccc31)CCC2`
Solution: no

Problem: Please indicate how the test categorized `CCOc1cc(C#N)ccc1OCC(=O)N1CCc2ccccc2C1` .
Solution: no
